system: Rattus norvegicus; assay: Gastric toxicity in albino rat assessed as ulcer index at 100 mg/kg, po after 5 hrs; assay type: organism-based; set-up: dose 100 mg/kg, route oral; settings: in vivo
API: label(entry) gives yes (1) if the entry's UI is strictly smaller than 7; on equality or larger values it gives no (0).

- compound: "Nc1ccc(C(=O)/C=C/c2ccco2)cc1"
  classification: "no (0)"
- compound: "CC(=O)c1ccc(OCC(=O)Nc2ccc(C(=O)/C=C/c3ccco3)cc2)cc1"
  classification: "yes (1)"
- compound: "O=C(CBr)Nc1ccc(C(=O)/C=C/c2ccc3c(c2)OCO3)cc1"
  classification: "no (0)"
- compound: "CC(=O)c1ccc(OCC(=O)Nc2ccc(C(=O)/C=C/c3ccc(Cl)cc3)cc2)cc1"
  classification: "no (0)"
- compound: "CC(Br)C(=O)Nc1ccc(C(=O)/C=C/c2ccc(Cl)cc2)cc1 (stereo not given)"
  classification: "no (0)"
- compound: "C/C(=N/O)c1ccc(OCC(=O)Nc2ccc(C(=O)/C=C/c3ccc4c(c3)OCO4)cc2)cc1"
  classification: "yes (1)"
- compound: "[O-][n+]1onc(-c2ccccc2)c1CO"
  classification: "yes (1)"
- compound: "COc1ccc2c(c1)c(CC(=O)O)c(C)n2C(=O)c1ccc(Cl)cc1"
  classification: "no (0)"
- compound: "COc1ccc(/C=C/C(=O)c2ccc(NC(=O)COc3ccc(C(C)=O)cc3)cc2)cc1"
  classification: "yes (1)"
- compound: "O=C(COCc1c(-c2ccccc2)no[n+]1[O-])Nc1ccc(C(=O)/C=C/c2ccco2)cc1"
  classification: "yes (1)"
- compound: "Nc1ccc(C(=O)/C=C/c2ccc3c(c2)OCO3)cc1"
  classification: "no (0)"
- compound: "C/C(=N/O)c1ccc(OCC(=O)Nc2ccc(C(=O)/C=C/c3ccco3)cc2)cc1"
  classification: "yes (1)"
- compound: "COc1ccc(/C=C/C(=O)c2ccc(N)cc2)cc1"
  classification: "no (0)"
- compound: "O=C(CO[N+](=O)[O-])Nc1ccc(C(=O)/C=C/c2ccc(Cl)cc2)cc1"
  classification: "yes (1)"

###

tested on: Rattus norvegicus; assay: Antiinflammatory activity in albino rat assessed as inhibition of carrageenan-induced paw edema at 100 mg/kg, po administered 30 mins prior to challenge measured after 1 hr relative to untreated control; assay type: functional
reportedMetric: inhibition in vivo at 100 mg/kg (%)

- compound: "COc1ccc(/C=C/C(=O)c2ccc(NC(=O)COc3ccc(/C(C)=N\\O)cc3)cc2)cc1"
  reportedMetric: "inhibition in vivo at 100 mg/kg"
  testResult: 33
- compound: "CC(Br)C(=O)Nc1ccc(C(=O)/C=C/c2ccco2)cc1 (stereo not given)"
  reportedMetric: "inhibition in vivo at 100 mg/kg"
  testResult: 30
- compound: "O=C(CBr)Nc1ccc(C(=O)/C=C/c2ccco2)cc1"
  reportedMetric: "inhibition in vivo at 100 mg/kg"
  testResult: 30
- compound: "COc1ccc(/C=C/C(=O)c2ccc(NC(=O)CO[N+](=O)[O-])cc2)cc1"
  reportedMetric: "inhibition in vivo at 100 mg/kg"
  testResult: 33
- compound: "COc1ccc(/C=C/C(=O)c2ccc(N)cc2)cc1"
  reportedMetric: "inhibition in vivo at 100 mg/kg"
  testResult: 42
- compound: "COc1ccc(/C=C/C(=O)c2ccc(NC(=O)C(C)Br)cc2)cc1 (stereo not given)"
  reportedMetric: "inhibition in vivo at 100 mg/kg"
  testResult: 39
- compound: "O=C(COCc1c(-c2ccccc2)no[n+]1[O-])Nc1ccc(C(=O)/C=C/c2ccco2)cc1"
  reportedMetric: "inhibition in vivo at 100 mg/kg"
  testResult: 30
- compound: "O=C(CO[N+](=O)[O-])Nc1ccc(C(=O)/C=C/c2ccco2)cc1"
  reportedMetric: "inhibition in vivo at 100 mg/kg"
  testResult: 34
- compound: "O=C(CO[N+](=O)[O-])Nc1ccc(C(=O)/C=C/c2ccc(Cl)cc2)cc1"
  reportedMetric: "inhibition in vivo at 100 mg/kg"
  testResult: 42
- compound: "C/C(=N/O)c1ccc(OCC(=O)Nc2ccc(C(=O)/C=C/c3ccc4c(c3)OCO4)cc2)cc1"
  reportedMetric: "inhibition in vivo at 100 mg/kg"
  testResult: 40
